Molecular target: CFTR (Homo sapiens, UniProt P13569, DEL508-508)
Construct: endogenous in cells; host or cells: primary human bronchial epithelial cells from CF subjects (F508del/MF-HBE), differentiated at air-liquid interface
Sequence (P13569 with tags, fused parts or gaps DEL508-508): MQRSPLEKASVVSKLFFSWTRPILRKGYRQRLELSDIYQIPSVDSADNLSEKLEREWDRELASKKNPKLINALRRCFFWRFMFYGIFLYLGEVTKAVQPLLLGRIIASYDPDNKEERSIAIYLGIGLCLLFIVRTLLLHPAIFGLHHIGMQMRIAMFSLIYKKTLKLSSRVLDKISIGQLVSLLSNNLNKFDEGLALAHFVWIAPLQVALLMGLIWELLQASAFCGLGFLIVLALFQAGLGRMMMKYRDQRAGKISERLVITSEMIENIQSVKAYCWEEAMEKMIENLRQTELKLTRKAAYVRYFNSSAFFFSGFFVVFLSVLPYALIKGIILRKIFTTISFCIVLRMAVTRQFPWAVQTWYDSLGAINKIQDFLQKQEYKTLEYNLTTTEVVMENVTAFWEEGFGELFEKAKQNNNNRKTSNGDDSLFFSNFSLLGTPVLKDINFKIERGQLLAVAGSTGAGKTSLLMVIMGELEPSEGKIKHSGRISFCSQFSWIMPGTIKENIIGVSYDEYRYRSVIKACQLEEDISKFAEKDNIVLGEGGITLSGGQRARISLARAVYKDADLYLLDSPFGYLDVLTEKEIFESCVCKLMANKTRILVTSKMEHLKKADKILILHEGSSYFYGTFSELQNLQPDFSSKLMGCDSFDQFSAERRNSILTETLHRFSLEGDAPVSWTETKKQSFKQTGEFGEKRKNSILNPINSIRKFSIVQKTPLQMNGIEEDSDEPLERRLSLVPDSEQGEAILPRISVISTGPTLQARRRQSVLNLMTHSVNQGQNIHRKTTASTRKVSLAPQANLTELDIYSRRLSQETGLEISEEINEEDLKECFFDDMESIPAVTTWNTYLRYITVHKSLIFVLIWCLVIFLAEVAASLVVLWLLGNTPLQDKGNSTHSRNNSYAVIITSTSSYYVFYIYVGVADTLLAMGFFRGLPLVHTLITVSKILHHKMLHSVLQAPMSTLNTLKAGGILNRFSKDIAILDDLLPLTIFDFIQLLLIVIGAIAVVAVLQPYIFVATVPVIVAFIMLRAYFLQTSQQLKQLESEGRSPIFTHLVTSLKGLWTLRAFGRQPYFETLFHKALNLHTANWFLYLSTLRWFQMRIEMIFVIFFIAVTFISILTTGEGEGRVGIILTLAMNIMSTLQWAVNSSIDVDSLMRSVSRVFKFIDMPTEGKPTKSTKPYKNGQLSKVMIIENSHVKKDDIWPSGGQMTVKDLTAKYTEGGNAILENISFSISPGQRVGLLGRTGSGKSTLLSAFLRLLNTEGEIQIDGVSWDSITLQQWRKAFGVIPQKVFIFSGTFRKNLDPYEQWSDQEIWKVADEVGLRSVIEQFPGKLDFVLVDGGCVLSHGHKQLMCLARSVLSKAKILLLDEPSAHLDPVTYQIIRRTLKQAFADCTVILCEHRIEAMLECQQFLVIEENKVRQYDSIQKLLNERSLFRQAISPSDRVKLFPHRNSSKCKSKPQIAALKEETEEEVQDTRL
Test: HBE assay: Ussing chamber assay of CFTR-mediated short-circuit currents
Format: cell-based
Details: Table 13; read-out: HBE EC50
pEC50: −log10 of the molar value.
metric: pEC50

Use these answered entries as a reference point.
Cc1cccc(C)c1-c1cc2nc(n1)NS(=O)(=O)c1cccc(c1)C(=O)N(Cc1nc3c(ccn3C(C)C)cc1F)[C@H](CC(C)(C)C)CO2 [Compound 1124]; > 6.00
Cc1cccc(C)c1-c1cc2nc(n1)NS(=O)(=O)c1cccc(c1)C(=O)N(Cc1cccc(N(CC3CC3)C(C)C)n1)[C@H](CC(C)(C)C)CO2 [Compound 235]; > 6.00
Cc1cccc(C)c1-c1cc2nc(n1)NS(=O)(=O)c1cccc(c1)C(=O)N(Cc1ccc(C3CC4(CCC4)C3)cn1)[C@H](CC(C)(C)C)CO2 [Compound 163]; 5.52 to 6.00
Cc1cccc(C)c1-c1cc2nc(n1)NS(=O)(=O)c1cccc(c1)C(=O)N(Cc1ncccc1F)[C@H](CC(C)(C)C)CO2 [Compound 1068]; > 6.00
Cc1cccc(C)c1-c1cc2nc(n1)NS(=O)(=O)c1cccc(c1)C(=O)N(Cc1nccc(N(C)C3CC(C)(C)C3)n1)[C@H](CC(C)(C)C)CO2 [Compound 436]; > 6.00

In the following, a different molecule is considered.
# query: pEC50 of entry Cc1cccc(C)c1-c1cc2nc(n1)NS(=O)(=O)c1cccc(c1)C(=O)N(Cc1ccc(OC(C)C)nn1)[C@H](CC(C)(C)C)CO2 [Compound 234] > 6.00

###

activation at 10 µM values, listed per item
Molecular target: CFTR (Homo sapiens, UniProt P13569, DEL508-508)
Construct: endogenous in cells; host or cells: primary human bronchial epithelial cells from CF subjects (F508del/MF-HBE), differentiated at air-liquid interface
Test: HBE assay: Ussing chamber assay of CFTR-mediated short-circuit currents
Format: cell-based
Settings: Table 13; at 10 μM; read-out: HBE Activity at 10 μM (%)

Cc1cccc(C)c1-c1cc2nc(n1)NS(=O)(=O)c1cccc(c1)C(=O)N(Cc1cccc(N3CCC34CCOCC4)n1)[C@H](CC(C)(C)C)CO2; > 600%
Cc1cccc(C)c1-c1cc2nc(n1)NS(=O)(=O)c1cccc(c1)C(=O)N(Cc1cccc(N3CCCC3C(C)(C)O)n1)[C@H](CC(C)(C)C)CO2 (stereo partly drawn); > 600%

Can you share its activation at 10 µM? I mean this molecule: Cc1cccc(C)c1-c1cc2nc(n1)NS(=O)(=O)c1cccc(c1)C(=O)N(CC(=O)N1CCc3ccccc3C1C)[C@H](CC(C)(C)C)CO2 (stereo partly drawn) > 600%

###

Listing of entries alongside the reported pEC50.
Target: CFTR (Homo sapiens, UniProt P13569, DEL508-508)
Construct: endogenous in cells; host or cells: primary human bronchial epithelial cells from CF subjects (F508del/MF-HBE), differentiated at air-liquid interface
Assay: HBE2 assay: Ussing chamber assay of CFTR-mediated short-circuit currents
Format: cell-based
Conditions: F508del/MF-HBE cells; corrector at a range of concentrations with 44 nM potentiator, 18-24 hours, 20% human serum
pEC50: −log10 of the molar value.

Solved entries (count: 4):
COC[C@@H]1CCN1c1cncc(CN2C(=O)c3cccc(c3)S(=O)(=O)Nc3nc(cc(-c4c(C)cccc4C)n3)OC[C@H]2CCC(C)(C)C)n1; > 6.00
Cc1cccc(C)c1-c1cc2nc(n1)NS(=O)(=O)c1cccc(c1)C(=O)N(Cc1cncc(N3CCC[C@H]3C(C)C)n1)[C@H](CCC(C)(C)C)CO2; > 6.00
Cc1cccc(C)c1-c1cc2nc(n1)NS(=O)(=O)c1cccc(c1)C(=O)N(Cc1cncc(N3CCC[C@H]3C(C)C)n1)[C@H](CCC1CC1)CO2; > 6.00
Cc1cccc(C)c1-c1cc2nc(n1)NS(=O)(=O)c1cccc(c1)C(=O)N(Cc1cncc(N3CCCC[C@H]3C)n1)[C@H](CCC(C)(C)C)CO2; > 6.00

Next item in the queue.
# lookup: pEC50 of `Cc1cccc(C)c1-c1cc2nc(n1)NS(=O)(=O)c1cccc(c1)C(=O)N(Cc1cncc(N(C)CC(C)(C)C)n1)[C@H](CCC1CC1)CO2` > 6.00

###

Molecular target: CFTR (Homo sapiens, UniProt P13569, DEL508-508)
Construct: endogenous in cells; host or cells: primary human bronchial epithelial cells from CF subjects (F508del/MF-HBE), differentiated at air-liquid interface
Experiment: HBE assay: Ussing chamber assay of CFTR-mediated short-circuit currents
Assay type: cell-based
Conditions: Table 13; read-out: HBE Max Activity (%)
Procedure: 1. Ussing Chamber Assay of CFTR-Mediated Short-Circuit Currents […] To isolate the CFTR-mediated short-circuit (ISC) current, F508del/MF-HBE grown on Costar® Snapwell™ cell culture inserts were mounted in an Ussing chamber and the transepithelial ISC was measured under voltage-clamp recording conditions (Vhold=0 mV) at 37° C. […] The CFTR-mediated ISC (μA/cm^2) for each condition was determined from the peak forskolin response to the steady-state current following inhibition. […]
metric: Emax

Please review the entries below; each comes with its answer.
COC1CC2(C1)CN(c1cnc(CN3C(=O)c4cccc(c4)S(=O)(=O)Nc4nc(cc(-c5c(C)cccc5C)n4)OC[C@H]3CC(C)(C)C)nc1)C2; > 60%
COCCCN(c1cccc(CN2C(=O)c3cccc(c3)S(=O)(=O)Nc3nc(cc(-c4c(C)cccc4C)n3)OC[C@H]2CC(C)(C)C)n1)C(C)C; > 60%
Cc1cccc(C)c1-c1cc2nc(n1)NS(=O)(=O)c1cccc(c1)C(=O)N(Cc1ncc(N3[C@H](C)CC[C@@H]3C)cn1)[C@H](CC(C)(C)C)CO2; > 60%
Cc1cccc(C)c1-c1cc2nc(n1)NS(=O)(=O)c1cccc(c1)C(=O)N(Cc1ncc([C@@H](O)CO)cn1)[C@H](CC(C)(C)C)CO2; > 60%

Please look at the following molecule next.
Requested field: Emax. Item: `Cc1cccc(C)c1-c1cc2nc(n1)NS(=O)(=O)c1cccc(c1)C(=O)N(Cc1ncc(C3CC4(CCC4)C3)cn1)[C@H](CC(C)(C)C)CO2` > 60%

###

Target: CFTR (Homo sapiens, UniProt P13569, DEL508-508)
Construct: endogenous in cells; host or cells: primary human bronchial epithelial cells from CF subjects (F508del/MF-HBE), differentiated at air-liquid interface
Test: HBE assay: Ussing chamber assay of CFTR-mediated short-circuit currents
Assay type: cell-based
Conditions: Table 13; read-out: HBE EC50
Each entry below carries its recorded EC50.

Here is how some molecules turned out for EC50.
Cc1cccc(C)c1-c1cc2nc(n1)NS(=O)(=O)c1cccc(c1)C(=O)N(Cc1cccc(OC(C)C)n1)[C@H](CC(C)(C)C)CO2; < 1000 nM
Cc1cccc(C)c1-c1cc2nc(n1)NS(=O)(=O)c1cccc(c1)C(=O)N(Cc1ncc(N3CCCC3(C)C)cn1)[C@H](CC(C)(C)C)CO2; < 1000 nM
Cc1cccc(C)c1-c1cc2nc(n1)NS(=O)(=O)c1cccc(c1)C(=O)N(Cc1nccc(N(C)CC(C)(C)C)c1F)[C@H](CC(C)(C)C)CO2; 1000 to 3000 nM
Cc1cccc(C)c1-c1cc2nc(n1)NS(=O)(=O)c1cccc(c1)C(=O)N(Cc1ccc([C@@H](O)CO)cn1)[C@H](CC(C)(C)C)CO2 [Compound 1150]; < 1000 nM
COCCCN(c1cccc(CN2C(=O)c3cccc(c3)S(=O)(=O)Nc3nc(cc(-c4c(C)cccc4C)n3)OC[C@H]2CC(C)(C)C)n1)C(C)C; < 1000 nM

Consider the molecule shown here: `Cc1cccc(C)c1-c1cc2nc(n1)NS(=O)(=O)c1cccc(c1)C(=O)N(Cc1ncc(C3CC4(C3)CC(C)(C)C4)cn1)[C@H](CC(C)(C)C)CO2` What is its recorded EC50? < 1000 nM

###

Biological target: CFTR (Homo sapiens, UniProt P13569, DEL508-508)
Construct: endogenous in cells; host or cells: primary human bronchial epithelial cells from CF subjects (F508del/MF-HBE), differentiated at air-liquid interface
Assay: HBE assay: Ussing chamber assay of CFTR-mediated short-circuit currents
Assay type: cell-based
Conditions: Table 10; at 10 μM; read-out: HBE activity at 10 (μM) (%)
metric: activation at 10 µM

A selection of reference data follows.
Cc1cccc(C)c1-c1cc2nc(n1)NS(=O)(=O)c1cccc(c1)C(=O)N(Cc1cc(C)n(C)n1)[C@H](CC(C)(C)C)CO2 [Compound 828]; > 60%
Cc1cccc(C)c1-c1cc2nc(n1)NS(=O)(=O)c1cccc(c1)C(=O)N(CC1CCC(NCC(=O)O)CC1)[C@H](CC(C)(C)C)CO2 (stereo partly drawn) [Compound 912]; < 300%
Cc1cccc(C)c1-c1cc2nc(n1)NS(=O)(=O)c1cccc(c1)C(=O)N(Cc1cn(C)nc1C)[C@H](CC(C)(C)C)CO2 [Compound 822]; > 60%
Cc1ccnc(CN2C(=O)c3cccc(c3)S(=O)(=O)Nc3nc(cc(-c4c(C)cccc4C)n3)OC[C@H]2CC(C)(C)C)n1 [Compound 479]; > 60%
Cc1cccc(C)c1-c1cc2nc(n1)NS(=O)(=O)c1cccc(c1)C(=O)N(Cc1ccc(C3CCCCC3)c(C)n1)[C@H](CC(C)(C)C)CO2 [Compound 467]; > 60%

Reported activation at 10 µM for Cc1cccc(C)c1-c1cc2nc(n1)NS(=O)(=O)c1cccc(c1)C(=O)N(Cc1ccn(C)n1)[C@H](CC(C)(C)C)CO2 [Compound 825] : what is it? > 60%

Find the recorded activation at 10 µM belonging to Cc1cccc(C)c1-c1cc2nc(n1)NS(=O)(=O)c1cccc(c1)C(=O)N(Cc1c(C)n[nH]c1C)[C@H](CC(C)(C)C)CO2 [Compound 485] and report it. > 60%

Look up activation at 10 µM for this compound: Cc1cccc(C)c1-c1cc2nc(n1)NS(=O)(=O)c1cccc(c1)C(=O)N(Cc1ccnn1C)[C@H](CC(C)(C)C)CO2 [Compound 827] > 60%

What activation at 10 µM value was documented for this compound, Cc1cccc(C)c1-c1cc2nc(n1)NS(=O)(=O)c1cccc(c1)C1Oc3cnc4ccccc4c3CN1[C@H](CC(C)(C)C)CO2 (stereo partly drawn) [Compound 752] ? < 300%
